Reported Ki values for the following compounds.
Biological target: NAD kinase 1 (Listeria monocytogenes serovar 1/2a (strain ATCC BAA-679 / EGD-e), UniProt Q8Y8D7)
Sequence (Q8Y8D7 whole entry): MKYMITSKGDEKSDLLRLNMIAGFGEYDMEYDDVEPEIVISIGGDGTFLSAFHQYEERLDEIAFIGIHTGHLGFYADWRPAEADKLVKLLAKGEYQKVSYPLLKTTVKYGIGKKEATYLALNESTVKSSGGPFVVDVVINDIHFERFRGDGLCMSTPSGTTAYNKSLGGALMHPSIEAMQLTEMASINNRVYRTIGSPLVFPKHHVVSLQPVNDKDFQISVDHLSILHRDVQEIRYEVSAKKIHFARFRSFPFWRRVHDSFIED
Assay: Inhibition of His-tagged Listeria monocytogenes NADK1 in presence of glucose-6-phosphate dehydrogenase and NADP measured by spectrophotometry method
Observation Type: Ki

Record Smiles | Data Value
NC[C@H]1O[C@@H](n2c(SCC(=O)NC[C@H]3O[C@@H](n4cnc5c(N)ncnc54)[C@H](O)[C@@H]3O)nc3c(N)ncnc32)[C@H](O)[C@@H]1O | 30 µM
Nc1ncnc2c1ncn2[C@@H]1O[C@H](COCC#Cc2nc3c(N)ncnc3n2[C@@H]2O[C@H](CO)[C@@H](O)[C@H]2O)[C@@H](O)[C@H]1O | 20 µM
